From: paper PMC6025808

- target-desc: GK-WT (recombinant wild type human β-cell glucokinase) (Homo sapiens, UniProt P35557)
- Sequence (P35557 whole entry): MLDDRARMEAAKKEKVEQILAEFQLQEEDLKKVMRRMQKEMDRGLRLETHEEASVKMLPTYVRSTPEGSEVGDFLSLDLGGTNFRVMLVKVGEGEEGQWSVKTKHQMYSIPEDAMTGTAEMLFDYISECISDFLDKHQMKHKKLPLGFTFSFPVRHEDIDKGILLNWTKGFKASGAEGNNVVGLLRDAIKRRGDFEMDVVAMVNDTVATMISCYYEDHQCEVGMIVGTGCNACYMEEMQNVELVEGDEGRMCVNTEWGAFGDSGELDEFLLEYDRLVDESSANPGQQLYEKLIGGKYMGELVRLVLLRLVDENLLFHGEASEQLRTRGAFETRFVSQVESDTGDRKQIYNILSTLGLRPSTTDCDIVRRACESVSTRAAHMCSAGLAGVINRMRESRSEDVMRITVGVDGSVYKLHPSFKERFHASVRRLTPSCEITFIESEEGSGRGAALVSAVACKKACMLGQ
- test-name: D-glucose binding to GK-WT by tryptophan fluorescence titration
- measurement-parameters: read-out: D-glucose binding KD, PO4 buffer pH 7.2, 20 °C
quantity-name: Kd (mM)
Answer format: numeric, mM implied, no suffix.

Incoming: # get_value(readout= Kd, system= GK-WT (recombinant wild type human β-cell glucokinase) (Homo sapiens, UniProt P35557)) for OC[C@H]1OC(O)[C@H](O)[C@@H](O)[C@@H]1O (stereo partly shown)
Outgoing: 7.39
